Origin of the recorded values: patent US10975119B2

Target: Caspase-8 (Homo sapiens, UniProt Q14790)
Construct: mixing the compounds with the respective active caspases; purchased BioVision K158-100
Sequence (Q14790 217-374 limits assumed): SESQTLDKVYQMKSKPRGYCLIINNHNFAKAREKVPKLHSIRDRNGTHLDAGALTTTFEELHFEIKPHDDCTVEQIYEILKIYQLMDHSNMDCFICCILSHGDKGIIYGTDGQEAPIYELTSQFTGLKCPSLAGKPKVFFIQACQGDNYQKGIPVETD
Sequence (Q14790 385-479 limits assumed): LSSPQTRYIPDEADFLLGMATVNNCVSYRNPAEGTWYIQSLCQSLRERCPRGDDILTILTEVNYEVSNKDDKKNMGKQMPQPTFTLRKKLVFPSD
Assay: Caspase-8 inhibitor screening assay (BioVision kit, IETD-AFC)
Assay type: biochemical
Details: read-out: IC50 Casp8
Would you mind telling me the reported IC50 of each entry?

Before answering, review these 4 worked examples.
>>> result("CC(C)(C)[C@@H](NC(=O)[C@H](CC(=O)O)NC(=O)OCc1ccccc1)C(=O)N1CC[C@@H]1C(=O)N[C@H](/C=C/S(C)(=O)=O)CC(=O)O [Compound 32]")
"4.08 µM"
>>> result("CC(C)(C)[C@H](NC(=O)c1ccc2ncccc2c1)C(=O)N1CCCC1C(=O)N[C@H](/C=C/S(C)(=O)=O)CC(=O)O (stereo in doubt) [Compound 10]")
"14.7 µM"
>>> result("CC(C)[C@H](NC(=O)OCc1ccccc1)C(=O)N[C@H](/C=C(\\Cl)S(C)(=O)=O)CC(=O)O [Compound 2]")
"> 100 µM"
>>> result("CC(C)[C@H](NC(=O)[C@@H](NC(=O)[C@H](CC(=O)O)NC(=O)OCc1ccccc1)c1ccccc1)C(=O)N[C@H](/C=C/S(C)(=O)=O)CCC(=O)O [Compound 84, Z-Asp-Phg-Val-Glu methyl vinyl sulfone]")
"> 100 µM"

For every item below, please supply its IC50.
1. CS(=O)(=O)/C(Cl)=C/[C@@H](N)CC(=O)O [Compound 4]
2. CC(C)[C@H](NC(=O)c1ccc2ccccc2n1)C(=O)N[C@H](/C=C/S(C)(=O)=O)CC(=O)O [Compound 16]

## Output
1: > 100 µM; 2: > 100 µM

---

Target: Caspase-3 (Homo sapiens, UniProt P42574)
Construct: mixing the compounds with the respective active caspases; purchased BioVision K153-100
Assay: Caspase-3 inhibitor screening assay (BioVision kit, DEVD-AFC)
Type: biochemical
Settings: read-out: IC50 Casp3
pIC50: −log10 of the molar value.
Property Measured: pIC50

Before answering, review these 3 worked examples.
>>> result("CC(C)(C)[C@H](NC(=O)c1ccc2ncccc2c1)C(=O)N1CCCC1C(=O)N[C@H](/C=C/S(C)(=O)=O)CC(=O)O (stereo in doubt)")
"< 4.00"
>>> result("CC(C)[C@H](NC(=O)c1ccc2ccccc2n1)C(=O)N[C@H](/C=C/S(C)(=O)=O)CC(=O)O")
"< 4.00"
>>> result("CCC(C)[C@H](NC(=O)[C@H](CCC(=O)O)NC(=O)[C@@H](NC(=O)OCc1ccccc1)C(C)C)C(=O)N[C@H](/C=C(\\Cl)S(C)(=O)=O)CC(=O)O (stereo partly shown)")
5.87

Proceeding to the next compound to report its pIC50.
So for CCOC(=O)/C=C/[C@H](CC(=O)O)NC(=O)[C@H]1CCCN1C(=O)[C@@H](NC(=O)c1ccc2ccccc2n1)C(C)(C)C , the logged pIC50 turned out to be < 4.00

---

Target: Caspase-3 (Homo sapiens, UniProt P42574)
Construct: mixing the compounds with the respective active caspases; purchased BioVision K153-100
Sequence (P42574 29-175 limits assumed): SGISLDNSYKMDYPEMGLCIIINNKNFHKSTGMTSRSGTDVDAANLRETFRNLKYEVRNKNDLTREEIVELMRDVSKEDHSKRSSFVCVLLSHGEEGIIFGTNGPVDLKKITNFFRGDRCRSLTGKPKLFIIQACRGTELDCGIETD
Sequence (P42574 176-277 limits assumed): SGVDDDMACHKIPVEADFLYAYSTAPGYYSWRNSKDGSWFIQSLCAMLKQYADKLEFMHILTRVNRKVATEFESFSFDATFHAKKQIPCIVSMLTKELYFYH
Assay: Caspase-3 inhibitor screening assay (BioVision kit, DEVD-AFC)
Type: biochemical
Conditions: read-out: % Inhibition at 100 uM Casp3
Would you mind telling me the reported inhibition at 100 µM of each entry?
Numbers only, in %.

>>> number("CC(C)[C@H](NC(=O)c1ccc2ccccc2n1)C(=O)N[C@H](/C=C/S(C)(=O)=O)CC(=O)O")
30
>>> number("CC(C)[C@H](NC(=O)[C@@H](NC(=O)[C@H](CC(=O)O)NC(=O)OCc1ccccc1)c1ccccc1)C(=O)N[C@H](/C=C/S(C)(=O)=O)CCC(=O)O")
88
>>> number("CC(C)(C)OC(=O)CC[C@H](NC(=O)OC(C)(C)C)C(=O)N[C@H](/C=C/S(C)(=O)=O)CC(=O)OC(C)(C)C")
4
>>> number("CC(C)(C)[C@@H](NC(=O)[C@H](CC(=O)O)NC(=O)OCc1ccccc1)C(=O)N1CC[C@@H]1C(=O)N[C@H](/C=C/S(C)(=O)=O)CC(=O)O")
100

Proceeding to the next compound to report its inhibition at 100 µM.
So for CCOC(=O)/C=C/[C@H](CC(=O)O)NC(=O)[C@@H](NC(=O)[C@@H](NC(=O)[C@H](CC(=O)O)NC(=O)OCc1ccccc1)c1ccccc1)C(C)C , the logged inhibition at 100 µM turned out to be 100
